# System: S. cerevisiae Burl-1 ts mutant growth, BacTiter-Glo, 38.5C 24 h
# METHOD: restored growth of temperature-sensitive Burl-1 yeast – whole organism, S. cerevisiae, Burl-1 ts mutant, luminescence, counter-screen for SUMOylation pathway inhibitor project, dose response (AID 463199)
Activity calls are given as the source filed them.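 How the source made its calls: active means AC50, the dose giving half-maximal effect, exceeds a fixed cutoff for a compound that rescues yeast growth under heat; inactive means the rest, inconclusive results apart.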
Answer with one of the outcomes given here: True for active, False for inactive

Answered cases to consult:
CCOCCCNC(=O)C(c1ccc(OC)cc1)N(Cc1cccs1)C(=O)c1ccccn1 (stereo unspecified)
False
CCOC(=O)C1ON2CCCCC2C1(O)C(F)(F)F (stereo unspecified)
False
O=C(Nc1cc(F)ccc1F)C1CCCO1 (stereo unspecified)
False

I would be grateful if you could indicate the recorded call for "Cc1cccn2c(=O)c3cc(C(=O)NCCc4ccccc4)sc3nc12" .
False

* * *

# Tested on: S. cerevisiae Burl-1 ts mutant growth, BacTiter-Glo, 38.5C 24 h
# METHOD: restored growth of temperature-sensitive Burl-1 yeast – whole organism, S. cerevisiae, Burl-1 ts mutant, luminescence, counter-screen for SUMOylation pathway inhibitor project, dose response (AID 463199)
The source made the active and inactive calls.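 The calls were made as follows: active = AC50, the dose giving half-maximal effect, exceeds a fixed cutoff for a compound that rescues yeast growth under heat; inactive = the rest, inconclusive results apart.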
REPORTED_PROPERTY: AC50

Recorded AC50, per entry:
COc1ccc(CN2C(=O)c3c(c(C)n(C)c3C)C2C(=O)NC2CCC(C)CC2)cc1 (stereo not given)
> 42 µM (inactive)
O=[N+]([O-])c1c(NCCCO)cc(Sc2nc3ccccc3s2)c2nonc12
> 42 µM (inactive)
COC(=O)/C=C\C(=O)Nc1cccc([N+](=O)[O-])c1
> 42 µM (inactive)
CCCCn1c(/C=N/Nc2nc3ccccc3[nH]2)nc2ccccc21
> 42 µM (inactive)
CC1CC(C)(C)N2C(=O)C3(Nc4ccccc4S3)c3cccc1c32 (stereo not given)
> 42 µM (inactive)

What value of measured AC50 is listed for "Cc1ccc(C)c(S(=O)(=O)n2cnc3ccccc32)c1" ?
> 42 µM (inactive)

Suppose we examine the molecule "Cc1onc(-c2ccccc2)c1C(=O)N/N=C/C=C/c1ccccc1" ; what AC50 value has been reported?
> 42 µM (inactive)

Any idea what AC50 was measured for "Cc1c(NC(=O)c2cc(-c3ccccc3O)on2)c(=O)n(-c2ccccc2)n1C" ?
> 42 µM (inactive)

Dear colleague, I am looking for the recorded AC50 of the following molecule: "Cc1cccc(C)c1NS(=O)(=O)c1ccc(OCCNS(C)(=O)=O)cc1"
> 42 µM (inactive)

For the molecule shown here, Cc1cnc(C(=O)OC(C(=O)c2c[nH]c3ccccc23)c2ccccc2)cn1 (stereo not given) , give the reported AC50.
> 42 µM (inactive)

* * *

// reported AC50 for each item listed
# Test system: S. cerevisiae Burl-1 ts mutant growth, BacTiter-Glo, 38.5C 24 h
# METHOD: restored growth of temperature-sensitive Burl-1 yeast – whole organism, S. cerevisiae, Burl-1 ts mutant, luminescence, counter-screen for SUMOylation pathway inhibitor project, dose response (AID 463199)
Active and inactive are the calls of the source.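 Rule for the calls: active = AC50, the dose giving half-maximal effect, exceeds a fixed cutoff for a compound that rescues yeast growth under heat; inactive = the rest, inconclusive results apart.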

CCCN1C(=O)c2[nH]nc(-c3cc(Cl)c(C)cc3O)c2C1c1ccc(O)c(OC)c1 (stereo unspecified)
> 42 µM (inactive)
CCOC(=O)NNC(=O)CCn1c2c(c3ccccc31)CCCC2
> 42 µM (inactive)
O=C(Cc1cccs1)N1CCCC(c2nc3c(nnn3Cc3ccc(F)cc3)c(=O)[nH]2)C1 (stereo unspecified)
> 42 µM (inactive)

Param item = "O=C(O)c1ccc(Cl)c(NCc2cccs2)c1" ; retrieve measured AC50.
> 42 µM (inactive)

Param item = Cc1cccc(N2CCN(CCCNC(=O)c3ccc(NC(=O)C4=CSCCO4)cc3)CC2C)c1 (stereo unspecified) ; retrieve measured AC50.
> 42 µM (inactive)

Given the compound "CC1CCN(CCCCOc2cccc(Br)c2)CC1" , what is its reported AC50?
> 42 µM (inactive)

Recorded AC50 of "COC(=O)C12CCC3(SCCS3)C(C(=O)OC)(CCC13SCCS3)C2" , please.
> 42 µM (inactive)

Query (compound): Cc1ccnc(NC(c2cccnc2)c2ccc3cccnc3c2O)c1 (stereo unspecified) ; field requested: AC50
> 42 µM (inactive)

Name the reported AC50 value associated with the compound "COc1ccc(C(=O)NCCSc2ccc(C)cc2)cc1"
> 42 µM (inactive)

# AC50 lookup, item "CC(C)c1nc2n[nH]c(N)c2c2c1CCC2"
> 42 µM (inactive)

Look up AC50: "COc1cc(C(=O)COC(=O)c2cc([N+](=O)[O-])ccc2N2CCOCC2)ccc1OC(F)F"
> 42 µM (inactive)

Origin of measurements: PubChem BioAssay AID463199
